Origin of measurements: patent US20200247894A1

Molecular target: T1, Human IL2Rγ extracellular domain expressed with a C-terminal mouse IgG2a Fc tag (human)
T1 construct: whole entry is the Fc-fused construct; also called hIL-2Rg-mFc
T1 chain: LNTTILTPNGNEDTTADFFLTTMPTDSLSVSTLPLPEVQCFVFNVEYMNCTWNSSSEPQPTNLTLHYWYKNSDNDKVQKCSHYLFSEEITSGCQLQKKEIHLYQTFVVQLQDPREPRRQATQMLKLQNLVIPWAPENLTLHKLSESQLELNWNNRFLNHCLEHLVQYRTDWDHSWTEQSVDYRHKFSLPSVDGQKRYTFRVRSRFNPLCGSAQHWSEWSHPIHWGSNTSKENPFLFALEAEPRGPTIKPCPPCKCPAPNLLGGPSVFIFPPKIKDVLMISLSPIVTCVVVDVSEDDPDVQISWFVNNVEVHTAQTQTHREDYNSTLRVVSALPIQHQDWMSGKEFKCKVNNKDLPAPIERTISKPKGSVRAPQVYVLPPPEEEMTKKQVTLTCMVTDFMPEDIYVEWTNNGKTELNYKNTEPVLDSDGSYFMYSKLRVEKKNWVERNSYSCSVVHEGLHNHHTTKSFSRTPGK
Experiment: SPR Biacore 4000, anti-hFc-captured mAb, 37 C
measured.parameter: pKd
Reminder that pKd means the negative base-10 logarithm of the concentration expressed in mol/L.

Consider the reported pKd for these binders:
| binder | readout.value |
| --- | --- |
| H4H12884P (antibody, human IgG4 S228P, kappa, V domains shown, fully human anti-IL2Rgamma mAb, human IgG4 Fc) VH: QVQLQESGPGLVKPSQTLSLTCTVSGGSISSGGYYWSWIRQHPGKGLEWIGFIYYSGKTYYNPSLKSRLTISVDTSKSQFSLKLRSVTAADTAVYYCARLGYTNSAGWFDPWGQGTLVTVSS VL: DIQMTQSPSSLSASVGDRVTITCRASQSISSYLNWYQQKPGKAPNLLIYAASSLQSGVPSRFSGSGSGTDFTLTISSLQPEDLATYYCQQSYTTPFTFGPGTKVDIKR | 10.26 |
| H4H12886P (antibody, human IgG4 S228P, kappa, V domains shown, fully human anti-IL2Rgamma mAb, human IgG4 Fc) VH: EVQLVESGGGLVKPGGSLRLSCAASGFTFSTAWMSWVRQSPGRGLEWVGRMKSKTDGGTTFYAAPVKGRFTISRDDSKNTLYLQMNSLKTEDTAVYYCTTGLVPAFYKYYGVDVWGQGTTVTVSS VL: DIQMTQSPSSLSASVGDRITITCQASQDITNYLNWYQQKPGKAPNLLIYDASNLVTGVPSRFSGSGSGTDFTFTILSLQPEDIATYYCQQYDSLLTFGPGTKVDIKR | 7.89 |
| H4H12871P (antibody, human IgG4 S228P, kappa, V domains shown, fully human anti-IL2Rgamma mAb, human IgG4 Fc; also called REGN9434) VH: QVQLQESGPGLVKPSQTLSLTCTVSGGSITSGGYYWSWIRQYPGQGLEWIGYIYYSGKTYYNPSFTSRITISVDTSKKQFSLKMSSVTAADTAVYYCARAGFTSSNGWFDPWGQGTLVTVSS VL: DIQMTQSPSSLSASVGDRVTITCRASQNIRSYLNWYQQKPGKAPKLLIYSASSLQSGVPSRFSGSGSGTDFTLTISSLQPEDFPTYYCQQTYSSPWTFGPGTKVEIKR | 10.30 |

Next item in the queue.
The recorded pKd for H4H13541P (antibody, human IgG4 S228P, kappa, V domains shown, fully human anti-IL2Rgamma mAb, human IgG4 Fc) VH: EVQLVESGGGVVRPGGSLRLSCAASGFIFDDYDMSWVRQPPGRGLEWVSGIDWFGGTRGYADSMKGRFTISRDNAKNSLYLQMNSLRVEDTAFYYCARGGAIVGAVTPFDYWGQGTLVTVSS VL: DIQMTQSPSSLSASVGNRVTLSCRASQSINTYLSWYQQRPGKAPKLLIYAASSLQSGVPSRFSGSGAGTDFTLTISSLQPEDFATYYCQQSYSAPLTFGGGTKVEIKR is 8.66
